Target: T1, human TNFR2 (Novoprotein, Catalog No. C830) (human, UniProt P20333 23-257, limits assumed)
T1 construct: construct not described; also called TNFR2 protein
T1 sequence (looked up): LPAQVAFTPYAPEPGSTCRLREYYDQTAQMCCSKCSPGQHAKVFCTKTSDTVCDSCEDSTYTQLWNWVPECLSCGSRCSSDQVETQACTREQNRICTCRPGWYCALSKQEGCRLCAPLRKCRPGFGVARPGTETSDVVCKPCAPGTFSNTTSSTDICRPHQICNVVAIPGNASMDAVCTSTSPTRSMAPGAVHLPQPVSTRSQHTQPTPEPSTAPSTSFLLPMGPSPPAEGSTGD
Assay: blocking ELISA, TNFα-biotin on coated human TNFR2, antibody 2 nM
Parameter Measured: ELISA OD of antibodies to be tested (2 nM)

Solved cases below.
1) TNFR2 antibody #365 (antibody, V domains shown) VH: EVQLQESGPGLVQPSQSLSITCTVSGFSLTSYGVHWVRQSPGKGLEWLGLIWSDGSPDYSAAFISRLSINKDNSKSQVFFKMNSLQADDTAIYYCARNDDGGDYVMDYWGQGTTVTVSS VL: EIVLTQSPALMSASPGEKVTMTCSASSSVSYMYWYQQKPRSSPKPWIYLTSNLASGVPARFSGSGSGTSYSLTISSMEAEDAATYYCQQWTSNPLTFGAGTKLEIK	1.26 OD
2) TNFR2 antibody #088 (antibody, V domains shown) VH: EVQLQESGGGLVQPGGSLNLSCAASGFAFSTYDLSWVRQTPGKRLEWVAYINNGGISTYYSDTVKGRFTITRDNAKNTLYLQMSSLKSEDTAMYYCVRGPFYGSANYFDYWGQGTTVTVSS VL: DILMTQSPASLSLFVGETVTITCRASENIYSNLAWYQQKQGKSPQLLVYDATKLAEGVPSRFSGSESGTQYSLKINSLQSEDFGTYYCQHFWVTPWTFGGGTKLEIK	2.34 OD
3) TNFR2 antibody #125 (antibody, V domains shown) VH: EVQLQESGGGLVQPGGSLNLSCAASGFAFSIYDLSWVRQTPEKRLEWVAYINNGGISTYYSDTVKGRFTISRDNAKNTLYLQMSSLKSEDTAMYYCVRGPFYGSANYFDYWGQGTTVTVSS VL: DIQMTQSPASLSLSVGETVTITCRASENIYSNLAWYQQKQGKSPQLLVYDATKLAEGVPSRFSGSESGTQYSLKINSLQSEDFGTYYCQHFWVTPWTFGGGTKLEIK	0.599 OD
4) TNFR2 antibody #309 (antibody, V domains shown) VH: EVQLQESGAELVKPGASVKLSCKASGYTFTSYWIHWVKLRPGQGFEWIGEINPNNGGTDYNEKFKRKATLTVDKSSSTAYMELSSLTSEDSAIYYCTIDSMITTTWFAYWGQGTTVTVSS VL: EIVMTQSQKLMSTVVGDRVSVTCKASQNVGTNVAWFQQKPGQSPKALINSASYRYSGVPDRFTGSGSGTDFTLTISSVQSEDLAEYFCQQYNSYPFTFGSGTKLEIK	2.14 OD
5) TNFR2 antibody #001 (antibody, V domains shown, also called antibody #1) VH: EVQLQESGGGLVQPGGSLNLSCAASGFAFSTYDLSWVRQTPEKRLEWVAYINNGGISTYYSDTVKGRFTISRDNAKNTLYLQMSSLKSEDTAMYYCVRGPFYGSANYFDYWGQGTTVTVSS VL: EIVMTQSPASLSLSVGETVTITCRTSESIYSNLPWYQQKQGKSPQLLVYDATKLAEGVPSRFSGSESGTQYSLKINSLQSEDFGTYYCQHFWVTPWTFGGGTKLEIK	0.805 OD
6) TNFR2 antibody #352 (antibody, V domains shown) VH: EVQLQESGPGLVAPSQSLSITCTVSGFSLTSYGVHWVRQPPGKGLEWLVVIWSDGGTTYNSALKSRLSISKDNSKSQVFLKMNSLQTDDTAMYYCARHDDDGYYAMDYWGQGTTVTVSS VL: DIVLTQSPSLMSASPGEKVTMTCSASSSVGYMYWYQQKPRSSPKPWIYLTSNLASGVPARFSGSGSGTSYSLTISSMEVEDAATYYCQQWSSDPFTFGSGTKLEIK	1.78 OD

Short answer for TNFR2 antibody #226 (antibody, V domains shown) VH: EVQLQESGAELVRPGASVKLSCKASGYSFTNYWMNWVKQRPGQGLEWIGMIHPSDSETRLNQKFKDKATLTVDKSSSTAYMQLSSPTSEDSAVYYCARGEGLGAARSVSMDYWGQGTTVTVSS VL: DIQMTQSPSSLSASLGDRVTISCRASQDISNYLNWYQQKPDGTVKVLIYYTALLHSGVPSRFSGSGSGTDYSLTISNLEQEDIATYFCQQGNTLPWTFGGGTKLEIK : ELISA OD of antibodies to be tested (2 nM) was 0.709 OD
